- study.system: Insulin receptor-related protein (Homo sapiens) (UniProt P14616);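 also: each reported figure is the mean of the IRR inhibition readings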
- Sequence (P14616 27-742 limits assumed): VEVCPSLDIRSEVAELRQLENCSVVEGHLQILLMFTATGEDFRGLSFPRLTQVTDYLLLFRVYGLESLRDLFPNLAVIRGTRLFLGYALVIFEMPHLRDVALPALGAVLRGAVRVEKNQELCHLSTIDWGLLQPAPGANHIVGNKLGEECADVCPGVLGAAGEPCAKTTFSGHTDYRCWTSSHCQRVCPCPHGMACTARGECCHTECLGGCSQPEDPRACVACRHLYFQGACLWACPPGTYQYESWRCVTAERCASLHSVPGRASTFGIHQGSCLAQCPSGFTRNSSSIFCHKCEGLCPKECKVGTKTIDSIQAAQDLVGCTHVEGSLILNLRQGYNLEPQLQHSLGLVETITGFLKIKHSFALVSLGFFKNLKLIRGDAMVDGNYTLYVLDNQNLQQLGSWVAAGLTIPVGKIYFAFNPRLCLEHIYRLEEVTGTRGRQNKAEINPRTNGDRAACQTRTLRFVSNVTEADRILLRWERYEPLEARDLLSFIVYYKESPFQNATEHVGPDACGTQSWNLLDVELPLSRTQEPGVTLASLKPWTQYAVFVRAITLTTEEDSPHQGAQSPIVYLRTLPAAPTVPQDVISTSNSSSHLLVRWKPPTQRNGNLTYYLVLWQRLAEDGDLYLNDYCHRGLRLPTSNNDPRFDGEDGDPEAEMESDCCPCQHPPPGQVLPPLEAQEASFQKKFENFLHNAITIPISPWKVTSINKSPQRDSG
- Sequence (P14616 747-1297 limits assumed): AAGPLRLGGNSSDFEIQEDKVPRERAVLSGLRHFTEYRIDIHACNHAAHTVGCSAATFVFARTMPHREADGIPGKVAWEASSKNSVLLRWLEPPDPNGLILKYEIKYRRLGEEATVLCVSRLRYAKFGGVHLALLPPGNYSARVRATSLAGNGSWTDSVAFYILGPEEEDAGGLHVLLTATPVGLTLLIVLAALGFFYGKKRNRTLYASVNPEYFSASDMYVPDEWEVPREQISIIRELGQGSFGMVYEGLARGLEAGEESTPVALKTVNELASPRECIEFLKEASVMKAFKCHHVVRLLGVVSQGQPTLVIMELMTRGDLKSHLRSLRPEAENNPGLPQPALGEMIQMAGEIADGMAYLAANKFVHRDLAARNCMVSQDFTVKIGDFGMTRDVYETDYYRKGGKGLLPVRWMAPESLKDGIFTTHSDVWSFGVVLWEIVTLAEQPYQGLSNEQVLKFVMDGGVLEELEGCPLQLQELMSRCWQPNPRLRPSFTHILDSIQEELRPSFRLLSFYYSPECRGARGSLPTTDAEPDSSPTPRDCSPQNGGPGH
- condition.info: at 1 µM

| entry.smiles | study.system | inhibition, % |
| --- | --- | --- |
| COc1cccc(/C=N/Nc2ncnc3c2cnn3-c2cccc(OC)c2)c1 | Insulin receptor-related protein (Homo sapiens) (UniProt P14616) | 1.31 |
| CN(C)CCOc1ccc(-c2cc(-c3ccc4c(c3)CCC4=NO)c(-c3ccncc3)o2)cc1 | Insulin receptor-related protein (Homo sapiens) (UniProt P14616) | -1.94 |
| CCS(=O)(=O)c1ccc(OC)c(Nc2ncc(-c3cccc(-c4ccccc4F)c3)o2)c1 | Insulin receptor-related protein (Homo sapiens) (UniProt P14616) | -0.35 |
| Cc1ccc(C(=O)NC(C)C)cc1-c1ccc(C(=O)NCC2CC2)cc1 | Insulin receptor-related protein (Homo sapiens) (UniProt P14616) | -4.41 |
| COc1cc(N2CCN(C(C)C)CC2)ccc1Nc1nc(Nc2ccc(F)cc2C(=O)NC[C@@H](O)CO)c2cc[nH]c2n1 | Insulin receptor-related protein (Homo sapiens) (UniProt P14616) | 78 |
| CCS(=O)(=O)c1ccc(OC)c(Nc2ncc(-c3ccccc3Cl)o2)c1 | Insulin receptor-related protein (Homo sapiens) (UniProt P14616) | 3.78 |
| FC(F)(F)c1cccc(Nc2nccc(-c3cnn4nc(-c5ccccc5)ccc34)n2)c1 | Insulin receptor-related protein (Homo sapiens) (UniProt P14616) | 0.27 |
| O=C(Nc1n[nH]c2cc(-c3ccccc3)ccc12)C1CC1 | Insulin receptor-related protein (Homo sapiens) (UniProt P14616) | 0.58 |
| CS(=O)(=O)CCNCc1cc(-c2cc3c(Nc4ccc(OCc5cccc(F)c5)c(Cl)c4)ncnc3s2)cs1 | Insulin receptor-related protein (Homo sapiens) (UniProt P14616) | 2.82 |
| COc1cccc(-n2cnc3c(N/N=C/c4ccncc4)ncnc32)c1 | Insulin receptor-related protein (Homo sapiens) (UniProt P14616) | 0.57 |
| O=C(Nc1n[nH]c2nc(-c3ccc(O)cc3)c(Br)cc12)C1CC1 | Insulin receptor-related protein (Homo sapiens) (UniProt P14616) | 1.59 |

====

- study.system: Serine/threonine-protein kinase Sgk2 (Homo sapiens) (UniProt Q9HBY8);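 also: each value is a mean percent inhibition of SGK2 from the GSK PKIS kinase screen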
- Sequence (whole entry): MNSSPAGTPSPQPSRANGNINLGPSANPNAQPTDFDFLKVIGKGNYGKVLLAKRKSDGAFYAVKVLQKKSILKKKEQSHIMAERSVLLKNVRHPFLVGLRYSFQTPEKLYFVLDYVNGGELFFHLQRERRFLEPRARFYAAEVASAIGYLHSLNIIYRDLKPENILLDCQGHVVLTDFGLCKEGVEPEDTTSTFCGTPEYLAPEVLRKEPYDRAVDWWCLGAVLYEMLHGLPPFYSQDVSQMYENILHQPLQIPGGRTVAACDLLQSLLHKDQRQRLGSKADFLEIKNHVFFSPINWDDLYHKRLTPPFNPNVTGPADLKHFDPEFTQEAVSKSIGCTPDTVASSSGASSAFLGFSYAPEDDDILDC
- condition.info: at 0.1 µM

| entry.smiles | study.system | unit.of.measure | inhibition |
| --- | --- | --- | --- |
| O=C(Nc1n[nH]c2cc(-c3cc(F)ccc3F)ccc12)C1CC1 | Serine/threonine-protein kinase Sgk2 (Homo sapiens) (UniProt Q9HBY8) | % | 0.34 |
| CCN(CC)Cc1ccc(Nc2nccc(-c3cnn4ncccc34)n2)cc1 | Serine/threonine-protein kinase Sgk2 (Homo sapiens) (UniProt Q9HBY8) | % | 3.89 |
| CN(c1ccc(NC(=O)Nc2c(Cl)cccc2Cl)cc1)c1ccnc(Nc2cccc(CS(C)(=O)=O)c2)n1 | Serine/threonine-protein kinase Sgk2 (Homo sapiens) (UniProt Q9HBY8) | % | 5.92 |
| O=C1NC(=O)C(c2cccc(Cl)c2)=C1Nc1ccc(Cl)c(C(=O)O)c1 | Serine/threonine-protein kinase Sgk2 (Homo sapiens) (UniProt Q9HBY8) | % | 0.84 |
| O=C(Nc1n[nH]c2nc(-c3ccco3)ccc12)C1CC1 | Serine/threonine-protein kinase Sgk2 (Homo sapiens) (UniProt Q9HBY8) | % | 0.71 |
| CN(C)CCCNc1nccc(-c2c(-c3ccc(F)cc3)nn3cc(C(F)(F)F)ccc23)n1 | Serine/threonine-protein kinase Sgk2 (Homo sapiens) (UniProt Q9HBY8) | % | 2.67 |
| Fc1ccc(-c2ncn(C3CCNCC3)c2-c2ccnc(Oc3ccc(F)c(F)c3)n2)cc1 | Serine/threonine-protein kinase Sgk2 (Homo sapiens) (UniProt Q9HBY8) | % | 3.89 |
| COc1ccc2ncn(-c3cc(O[C@H](C)c4ccccc4Cl)c(C(N)=O)s3)c2c1 | Serine/threonine-protein kinase Sgk2 (Homo sapiens) (UniProt Q9HBY8) | % | 0.49 |
| CCc1nccc2c1nc(-c1nonc1N)n2CC | Serine/threonine-protein kinase Sgk2 (Homo sapiens) (UniProt Q9HBY8) | % | 0.23 |
| Cc1nnc(-c2ccc(C)c(-c3ccc(C(=O)NCc4ccc(Cl)cc4)cc3)c2)o1 | Serine/threonine-protein kinase Sgk2 (Homo sapiens) (UniProt Q9HBY8) | % | 2.67 |
| COc1cc2ncn(-c3cc(OCc4ccccc4C(F)(F)F)c(C(C)=O)s3)c2cc1OC | Serine/threonine-protein kinase Sgk2 (Homo sapiens) (UniProt Q9HBY8) | % | 3.09 |
| NS(=O)(=O)c1ccc(N/N=C2\C(=O)Nc3ccc(C(=O)NCCCn4ccnc4)cc32)cc1 | Serine/threonine-protein kinase Sgk2 (Homo sapiens) (UniProt Q9HBY8) | % | 2.07 |
| NC(=O)c1cc(-c2ccncc2)cc(-c2ccccc2)c1N | Serine/threonine-protein kinase Sgk2 (Homo sapiens) (UniProt Q9HBY8) | % | 4.36 |
| COc1cc(N2CCN(C(C)C)CC2)ccc1Nc1nc(Nc2ccc(F)cc2C(=O)NC[C@@H](O)CO)c2cc[nH]c2n1 | Serine/threonine-protein kinase Sgk2 (Homo sapiens) (UniProt Q9HBY8) | % | 2.67 |
| NC(=O)c1ccc(Oc2nccc(-c3c(-c4ccc(F)cc4)ncn3C3CCNCC3)n2)cc1 | Serine/threonine-protein kinase Sgk2 (Homo sapiens) (UniProt Q9HBY8) | % | 1.93 |
| Cc1ccc(NC(=O)c2ccoc2)cc1-c1ccc(C(=O)NCC2CC2)cc1 | Serine/threonine-protein kinase Sgk2 (Homo sapiens) (UniProt Q9HBY8) | % | 2.95 |
| CS(=O)(=O)CCNCc1cc(-c2cc3c(Nc4ccc(OCc5cccc(F)c5)c(Cl)c4)ncnc3s2)cs1 | Serine/threonine-protein kinase Sgk2 (Homo sapiens) (UniProt Q9HBY8) | % | 5.74 |
| CN(C)c1ccc2c(c1)/C(=C/Nc1ccc(S(N)(=O)=O)cc1)C(=O)N2 | Serine/threonine-protein kinase Sgk2 (Homo sapiens) (UniProt Q9HBY8) | % | 0.91 |
| O=C(Nc1n[nH]c2cc(-c3ccccc3)ccc12)C1CC1 | Serine/threonine-protein kinase Sgk2 (Homo sapiens) (UniProt Q9HBY8) | % | 1.79 |

====

- study.system: Tyrosine-protein kinase Fyn (Homo sapiens)
- condition.info: at 0.1 µM
- Description: GSK_PKIS: FYN mean inhibition at 0.1 uM [Nanosyn]
Reported inhibition values for the following molecules.

| entry.smiles | inhibition |
| --- | --- |
| CCc1cccc(CC)c1/C=C/c1cncc(C(=O)NC)c1 | 3.51% |
| NCc1ccc(-n2c(-c3nonc3N)nc3cnccc32)cc1 | 1.24% |
| COC(=O)Nc1nc2ccc(Sc3ccc(NC(=O)Nc4cc(C(F)(F)F)ccc4F)cc3)cc2[nH]1 | -1.41% |
| COc1cc2ncn(-c3cc(OCCc4ccccc4)c(C(N)=O)s3)c2cc1OC | 2.91% |
| CN1CCN(CCCNc2nc3ccc(Oc4ccc(NC(=O)Nc5cc(C(F)(F)F)ccc5F)cc4)cc3[nH]2)CC1 | -4.47% |
| COc1cc2ncn(-c3cc(OCc4ccccc4C(F)(F)F)c(C(C)=O)s3)c2cc1OC | 1.85% |
| Fc1ccc(-c2c(-c3ccncc3)nc3n2CCS3)cc1 | -3.03% |
| Fc1ccc(-c2ncn(C3CCNCC3)c2-c2ccnc(Oc3ccc(F)c(F)c3)n2)cc1 | -4.18% |
| NC(=O)Cc1ccccc1Oc1nccc(-c2c(-c3ccc(F)cc3)ncn2C2CCNCC2)n1 | 2.4% |
| NC(=O)c1cc(-c2ccc(F)cc2)cc(-c2ccncc2)c1N | 0.07% |

====

- Tested on: Mast/stem cell growth factor receptor Kit (Homo sapiens), P10721 [D816V]
- Sequence (P10721 whole entry D816V): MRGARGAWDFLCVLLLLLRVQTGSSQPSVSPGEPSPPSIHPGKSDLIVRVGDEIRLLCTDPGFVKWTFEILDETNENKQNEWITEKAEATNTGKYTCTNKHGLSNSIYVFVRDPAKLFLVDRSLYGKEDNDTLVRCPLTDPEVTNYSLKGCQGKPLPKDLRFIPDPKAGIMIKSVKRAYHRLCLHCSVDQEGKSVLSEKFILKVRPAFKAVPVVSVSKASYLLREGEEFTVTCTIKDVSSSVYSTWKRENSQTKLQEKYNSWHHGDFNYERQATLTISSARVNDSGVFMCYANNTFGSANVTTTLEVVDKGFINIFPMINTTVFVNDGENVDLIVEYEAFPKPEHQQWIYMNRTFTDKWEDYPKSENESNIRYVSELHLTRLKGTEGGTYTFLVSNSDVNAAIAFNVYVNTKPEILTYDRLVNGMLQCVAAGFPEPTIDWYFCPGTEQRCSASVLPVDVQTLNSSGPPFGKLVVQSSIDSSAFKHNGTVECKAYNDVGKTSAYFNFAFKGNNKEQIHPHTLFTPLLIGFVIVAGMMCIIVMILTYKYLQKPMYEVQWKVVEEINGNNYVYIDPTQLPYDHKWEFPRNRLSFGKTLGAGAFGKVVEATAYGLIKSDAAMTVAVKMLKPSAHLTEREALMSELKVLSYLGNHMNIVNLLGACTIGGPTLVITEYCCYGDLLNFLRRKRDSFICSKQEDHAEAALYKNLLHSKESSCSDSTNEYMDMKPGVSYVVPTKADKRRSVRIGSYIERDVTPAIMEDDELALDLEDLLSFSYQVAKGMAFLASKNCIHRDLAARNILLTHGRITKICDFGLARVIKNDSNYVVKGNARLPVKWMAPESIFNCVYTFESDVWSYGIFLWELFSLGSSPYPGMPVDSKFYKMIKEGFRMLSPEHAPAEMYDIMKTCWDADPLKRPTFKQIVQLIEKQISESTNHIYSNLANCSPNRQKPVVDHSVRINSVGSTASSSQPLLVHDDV
- condition.info: at 0.1 µM

| entry.smiles | inhibition |
| --- | --- |
| Cc1ccc(C(=O)NC2CCC2)cc1-c1ccc(C(=O)NCC2CC2)cc1 | 1.7% |
| CN(C)CCOc1ccc(-c2cc(-c3ccc4c(c3)CCC4=NO)c(-c3ccncc3)o2)cc1 | -1.77% |
| COc1ccc2ncn(-c3cc(O[C@H](C)c4ccccc4Cl)c(C(N)=O)s3)c2c1 | 2.74% |
| O=C(Nc1n[nH]c2nc(-c3ccc(O)cc3)c(Br)cc12)C1CC1 | 9.03% |
| C[C@@H](Oc1cc(-n2cnc3ccc(OCC4CCN(C)CC4)cc32)sc1C(N)=O)c1ccccc1Cl | 5.13% |
